A collection of compounds and their measured max response
Experiment: qHTS assay for small molecule agonists of retinoid X receptor alpha signaling (AID 588544)
Conditions: HEK293T RXRa-UAS-bla, beta-lactamase reporter, 18 h; 530 nm emission
Records with an inconclusive call do not appear.
readout_label: max response (%)

compound	readout_label	value_unit	reported_value
CCC(C)O (configuration not stated)	max response	%	-20.4
CC=C(Cl)Cl	max response	%	-16.9
O=[N+]([O-])c1ccc(Cl)cc1Cl	max response	%	-6.43
Cc1cc(C2(c3cc(C)c(O)cc3C)OS(=O)(=O)c3ccccc32)c(C)cc1O	max response	%	-3.17
CCCCC(=O)N(C)C	max response	%	-11.8
Cc1ccc2c(c1[N+](=O)[O-])C(=O)c1ccccc1C2=O	max response	%	-1.88
OC(CCl)CCl	max response	%	-16.7
